B1: Segment polarity protein dishevelled homolog DVL-3, residues 2 to 81; numbered along this chain, Q92997 (parent)
chain: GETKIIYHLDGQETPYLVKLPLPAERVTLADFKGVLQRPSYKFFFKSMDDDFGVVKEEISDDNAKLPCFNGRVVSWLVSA

variants of: B1; assay: abundance fitness (aPCA) (normalised: wild type 0, dead -1); higher = more abundant; growth selection in yeast, the domain comes from the species named; conditions: Homo sapiens
So basically every entry gets a class from its abundance fitness, ranges being low bin: < -0.4; mid bin: ≥ -0.4 and < 0.1; high bin: ≥ 0.1

# example entries with known answers
# MUTATION STRING, CATEGORY
measured = [
    ("P39D", "high bin"),
    ("A80H", "mid bin"),
    ("K19V", "high bin"),
]

Request: Please report the category associated with `E57S` , nothing else.
Response: mid bin

Request: Please report the category associated with `F45E` , nothing else.
Response: mid bin
